B1: Serine/threonine-protein kinase A-Raf, residues 21 to 89; numbered along this chain, P10398 (parent)
chain: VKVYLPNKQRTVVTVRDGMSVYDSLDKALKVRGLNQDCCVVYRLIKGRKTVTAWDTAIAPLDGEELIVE

variants of: B1; test: abundance fitness (aPCA) (normalised: wild type 0, dead -1); higher = more abundant; growth selection in yeast, the domain comes from the species named; settings: Homo sapiens
Record 1.0 whenever abundance fitness is at -0.5 or higher; record 0.0 when lower.

| BIOPOLYMER_SEQUENCE | CLASS_NAME |
| --- | --- |
| VKVYLPNKQRTVVTVRDGPSVYDSLDKALKVRGLNQDCCVVYRLIKGRKTVTAWDTAIAPLDGEELIVE | 0.0 |
| VKVYLPLKQRTVVTVRDGMSVYDSLDKALKVRGLNQDCCVVYRLIKGRKTVTAWDTAIAPLDGEELIVE | 0.0 |
| VKVYLPNKQRTVVTVRDGMSVYDSLDKALKVLGLNQDCCVVYRLIKGRKTVTAWDTAIAPLDGEELIVE | 1.0 |
| VKVYLPNKQRTVVTVRDGMRVYDSLDKALKVRGLNQDCCVVYRLIKGRKTVTAWDTAIAPLDGEELIVE | 1.0 |
| VKVYLPNKQRTVVTVRDGMSVYDSLDKALKVRGLNQDCCVVYRLIKGRKTVTAWDTAIAYLDGEELIVE | 1.0 |
| VKVYLPNKQRTVVTVRDGMSVYDSLDKALKVRGLNQDCCVVYRLIKGRKTVTAWDTAIAPLDGETLIVE | 1.0 |
| VKVYLPNKQRTVVTVRDGMSVYDSLDKALKVRGLNQDCCVVPRLIKGRKTVTAWDTAIAPLDGEELIVE | 0.0 |
| VKVYLPNKQRTVVTVRDGMSVYDSLDKALKVRGLNQDCCVVYRLIKGRDTVTAWDTAIAPLDGEELIVE | 0.0 |
| VKVYLPNKQRTVVTVRDGMSVYDSLDKALKVRGLNQDGCVVYRLIKGRKTVTAWDTAIAPLDGEELIVE | 1.0 |
| VKVYLPNKQRTVVTVRDGMSVYDSLDKALKVRGLNHDCCVVYRLIKGRKTVTAWDTAIAPLDGEELIVE | 1.0 |
| VKVYLPNQQRTVVTVRDGMSVYDSLDKALKVRGLNQDCCVVYRLIKGRKTVTAWDTAIAPLDGEELIVE | 1.0 |
| VKVYLPNKQRTVVTVRDGMSVYDSLDKALKVRGLNQDCCVVYRLIKGRKTVTAWDTALAPLDGEELIVE | 1.0 |
| VKVYLPNKQRTVVTVRDGMSVYDSLDKALKVRGLNQDWCVVYRLIKGRKTVTAWDTAIAPLDGEELIVE | 1.0 |
| VKVYLPNKQRTVVTVRDGMSVMDSLDKALKVRGLNQDCCVVYRLIKGRKTVTAWDTAIAPLDGEELIVE | 1.0 |
| VKVYLPNKQRTVETVRDGMSVYDSLDKALKVRGLNQDCCVVYRLIKGRKTVTAWDTAIAPLDGEELIVE | 0.0 |
| VKVYLPNKQRTVVTVRDGMSVYDSLDKALKVRGLNQDCCVVYRLIKGRKTVTAWDTAIAFLDGEELIVE | 1.0 |
| VKVYLPNKQRTVVTVRDGMSVYDSLDKALKVRGLNQDCCVVYRLIKGRKTVTAWDRAIAPLDGEELIVE | 1.0 |
| VKVYLPNKQRTVVTVRDGMSVYDSLDKALKVRGLNQDCCVVYRLIKCRKTVTAWDTAIAPLDGEELIVE | 0.0 |
| VKVYLPNKQRTVVTVRDGMSVYDSLDKALKVRGLNQDCCVVYRLIKGRKTVTAGDTAIAPLDGEELIVE | 0.0 |
| VKVYLPNKQRTVVTVRDGMSQYDSLDKALKVRGLNQDCCVVYRLIKGRKTVTAWDTAIAPLDGEELIVE | 0.0 |
| VKVYLPNKQRTVVTVRDGMSVYDSLDKALKVRGLNQDCCVVYRLIKGRKTVTAWDTAIAPLSGEELIVE | 1.0 |
| VKVYLPNKQRTVVTVRDGMSVYDSLDKALKVRGLNQDCCVVYRVIKGRKTVTAWDTAIAPLDGEELIVE | 1.0 |
| VKVYLPNKQRTVVTVRDGESVYDSLDKALKVRGLNQDCCVVYRLIKGRKTVTAWDTAIAPLDGEELIVE | 1.0 |
| VKVYLPNKQRTVVTVRDGMSVYDSLDKALKVRGLTQDCCVVYRLIKGRKTVTAWDTAIAPLDGEELIVE | 1.0 |
| VKVYLPNKQRTVVTVRDGMSVYDSLDKALKVRGLNQDCCVVRRLIKGRKTVTAWDTAIAPLDGEELIVE | 0.0 |
| VKVYLPNKQRTVVMVRDGMSVYDSLDKALKVRGLNQDCCVVYRLIKGRKTVTAWDTAIAPLDGEELIVE | 1.0 |
| VKVYLPNKQRTVVTVRDGVSVYDSLDKALKVRGLNQDCCVVYRLIKGRKTVTAWDTAIAPLDGEELIVE | 1.0 |
| VKVYLPNKQRTVVTVRDGMSVYDSLDKALKVRGLNQDCCVVDRLIKGRKTVTAWDTAIAPLDGEELIVE | 0.0 |
| VKVYLPNKQRTVVTVRDGMSVYDSLDKALKVRGLNQDCCVVYRLIKGRKTVTAWDTAIAPLDGEELIVN | 0.0 |
| VKVYLPEKQRTVVTVRDGMSVYDSLDKALKVRGLNQDCCVVYRLIKGRKTVTAWDTAIAPLDGEELIVE | 1.0 |
| VKVYLPNKQRTVVTVRDGMSVYDSLDKALKVRGLNQDCCVVYRLIKGRKTVTAWDMAIAPLDGEELIVE | 1.0 |
| VKVYLPNKQRTVVTVKDGMSVYDSLDKALKVRGLNQDCCVVYRLIKGRKTVTAWDTAIAPLDGEELIVE | 1.0 |
| VKVYLPNKQRTVVTVRDGMSVYDSLDKALKVRGLNQDCCGVYRLIKGRKTVTAWDTAIAPLDGEELIVE | 0.0 |
| VKVYLPNKQRTVVTIRDGMSVYDSLDKALKVRGLNQDCCVVYRLIKGRKTVTAWDTAIAPLDGEELIVE | 1.0 |
| VKVYLPNKQRTVVTVRDGMSVYDSLDKALKVRGLNQDCCVVYRLIKGRKTVTAWDTAIAMLDGEELIVE | 1.0 |
| VKVYLPNKQRTVVTVRDGMSVYDSWDKALKVRGLNQDCCVVYRLIKGRKTVTAWDTAIAPLDGEELIVE | 0.0 |
| VKVYLPNKQRTVVTVRDGMSVPDSLDKALKVRGLNQDCCVVYRLIKGRKTVTAWDTAIAPLDGEELIVE | 0.0 |
| VKVYLPNKQRTVVTVRDGMSVYDSLDKALKVRGLNQDCCVVYRLSKGRKTVTAWDTAIAPLDGEELIVE | 1.0 |
| VKVYLPNKQRTVVTVRDGMSVYDSLDKALKVRGLNQDCCVVYRLIKGRKTVTRWDTAIAPLDGEELIVE | 1.0 |
| LKVYLPNKQRTVVTVRDGMSVYDSLDKALKVRGLNQDCCVVYRLIKGRKTVTAWDTAIAPLDGEELIVE | 1.0 |
| VKVYLPNKQRTVVTVRDGMSVYDSLDKALKVRGLNQDCCVVYRLIKGRKTVTAWDTAIAPWDGEELIVE | 1.0 |
| VKVYLPNKQRTVVTVRDGMSVYDSLDKALKVRGLNQDCCVWYRLIKGRKTVTAWDTAIAPLDGEELIVE | 0.0 |
| VKVYLPNKQRTVVTVRDGMSVYDSQDKALKVRGLNQDCCVVYRLIKGRKTVTAWDTAIAPLDGEELIVE | 0.0 |
| VKVYLPNKQRTVVTVRDGMSVYDSLDKALKVRGLNQDCCVVYRLIKGRMTVTAWDTAIAPLDGEELIVE | 1.0 |
| VKVYLPNKQRTVVTCRDGMSVYDSLDKALKVRGLNQDCCVVYRLIKGRKTVTAWDTAIAPLDGEELIVE | 1.0 |
| VKVYLPNKQRTVVTVRDGMSVYDSLDKALKVRGLNQDCCVVYRLIKGRKTVTAWGTAIAPLDGEELIVE | 1.0 |
| VKVYLPNKQRTVVTVRDGMSVYDSLDKALKVRGLNQDCCVVYRLIKGRKTVTAWLTAIAPLDGEELIVE | 0.0 |
| VKVKLPNKQRTVVTVRDGMSVYDSLDKALKVRGLNQDCCVVYRLIKGRKTVTAWDTAIAPLDGEELIVE | 1.0 |
| VKVYLPNKQRTVVTVRDGMSVYDSLDKAIKVRGLNQDCCVVYRLIKGRKTVTAWDTAIAPLDGEELIVE | 0.0 |
| VKVYLPNKQRTVVTVRDGMSVYDSLDKALKVRGLNQDCCVVYRLIKGRKTVTAWDCAIAPLDGEELIVE | 1.0 |
| VKVYLPNKQRTVVTVRDGMSVYDSLDKALKVRGLNQDCCVVYRLIKGRKTQTAWDTAIAPLDGEELIVE | 1.0 |
| VKVYLPNKQRTVVTVRDGMSVYDSLDKALKVRGLNQDCCVVYRLHKGRKTVTAWDTAIAPLDGEELIVE | 1.0 |
| VKVYLPNKQRTVVTVRDGWSVYDSLDKALKVRGLNQDCCVVYRLIKGRKTVTAWDTAIAPLDGEELIVE | 1.0 |
| VKVYLQNKQRTVVTVRDGMSVYDSLDKALKVRGLNQDCCVVYRLIKGRKTVTAWDTAIAPLDGEELIVE | 1.0 |
| VKVYLPNKQRTVCTVRDGMSVYDSLDKALKVRGLNQDCCVVYRLIKGRKTVTAWDTAIAPLDGEELIVE | 1.0 |
| VKVYLPNKQRTVVTVRDGMSVYDSLDKALKVRGLNQDCCVVYRLIKGRKTVTAWDTAIDPLDGEELIVE | 1.0 |
| VKVYLPNKQRTVVTVRDGMSVYDSLDKALKVRGLNQDCCVVYRLIKGRKTVTAWDTAIAWLDGEELIVE | 1.0 |
| VKVYLPNKQRTVVTVRDGMSVYDSLDKALKVRGLNQWCCVVYRLIKGRKTVTAWDTAIAPLDGEELIVE | 0.0 |
| VKVYLPNKQRTVVTVRDGMSVYDSLDKAWKVRGLNQDCCVVYRLIKGRKTVTAWDTAIAPLDGEELIVE | 0.0 |
| VKVYLPNKQRTVVTVYDGMSVYDSLDKALKVRGLNQDCCVVYRLIKGRKTVTAWDTAIAPLDGEELIVE | 1.0 |
| VKVYLPNKQRIVVTVRDGMSVYDSLDKALKVRGLNQDCCVVYRLIKGRKTVTAWDTAIAPLDGEELIVE | 1.0 |
| VKVYLPNKQRTVVTVRDGMSVYDSLDKALKVRGLNQDCCVVGRLIKGRKTVTAWDTAIAPLDGEELIVE | 0.0 |
| VKVYLPNKQRTVVTVRDGMSVYDSLDKALKVRGLNQDCCVCYRLIKGRKTVTAWDTAIAPLDGEELIVE | 1.0 |
| VKVYLPNKQRTVVTMRDGMSVYDSLDKALKVRGLNQDCCVVYRLIKGRKTVTAWDTAIAPLDGEELIVE | 1.0 |
| VKVYLPNKQRTVVTVRDGMSVYDSLDKALKVRGVNQDCCVVYRLIKGRKTVTAWDTAIAPLDGEELIVE | 0.0 |
| VKVYLPNKQRTVVTVRDGMSVYDSLDKALLVRGLNQDCCVVYRLIKGRKTVTAWDTAIAPLDGEELIVE | 0.0 |
| VKVYLPNKQRTVVTVRDGMSVYDSLDKALKVRGLNQDCCVVYRLIKGRKTVTAWDTAPAPLDGEELIVE | 0.0 |
| VKVYLPNKQRTVVTVRDGMSVYDSLDKALKVRGLNQDCCVVYRLIKGRKPVTAWDTAIAPLDGEELIVE | 0.0 |
| VKVYLPNKQRTVVTVRGGMSVYDSLDKALKVRGLNQDCCVVYRLIKGRKTVTAWDTAIAPLDGEELIVE | 1.0 |
| VSVYLPNKQRTVVTVRDGMSVYDSLDKALKVRGLNQDCCVVYRLIKGRKTVTAWDTAIAPLDGEELIVE | 1.0 |
